Biological target: rat brain membranes (Rattus norvegicus, UniProt P25099)
Construct: A1 -adenosine receptors in rat brain membranes; from tissue; host or cells: rat brain membranes
Sequence (P25099 whole entry): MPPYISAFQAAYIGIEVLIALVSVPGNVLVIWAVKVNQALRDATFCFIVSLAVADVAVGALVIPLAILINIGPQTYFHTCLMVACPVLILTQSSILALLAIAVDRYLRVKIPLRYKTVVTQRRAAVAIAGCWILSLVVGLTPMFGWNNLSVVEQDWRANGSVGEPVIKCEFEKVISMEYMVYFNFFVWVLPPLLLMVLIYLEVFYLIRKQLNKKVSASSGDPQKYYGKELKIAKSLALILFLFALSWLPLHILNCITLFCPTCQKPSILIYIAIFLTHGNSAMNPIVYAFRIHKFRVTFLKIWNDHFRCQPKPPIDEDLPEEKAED
Experiment: inhibition of [3H]XAC binding to rat brain membranes (blocking experiments)
Conditions: rat brain membranes, [3H]XAC
propertyLabel: Ki
Hi, when you answer, please include the unit after the number. Thanks!

Looking for the measured Ki of `CCCn1c(=O)c2[nH]c(-c3ccc(OCC(=O)NCCNC(=S)Nc4ccc(NC(=S)NCCN)cc4)cc3)nc2n(CCC)c1=O` , can you help?
18 nM

====

Target: A1 adenosine receptors (Rattus norvegicus, UniProt P25099)
Construct: A1 adenosine receptors in rat cerebral cortex membranes; from tissue; host or cells: rat cerebral cortex membranes
Test: inhibition of binding of [3H]N6-phenylisopropyladenosine ([3H]PIA) to A1 adenosine receptors in rat cerebral cortex membranes
Conditions: Table I, rat, against [3H]PIA; read-out: Ki at central A1 receptors, rat
pKi: −log10 of the molar value.
true means recorded pKi is 8 or above; false means it is below 8.

The following molecules have reported results that may help.
molecule="CCCn1c(=O)c2[nH]c(-c3ccc(OCC(=O)NCCNC(=O)CCCCC(C)=O)cc3)nc2n(CCC)c1=O [Compound 17]" class=false
molecule="CCCn1c(=O)c2[nH]c(-c3ccc(OCC(=O)NCCNC(=O)CCC(=O)ON4C(=O)CCC4=O)cc3)nc2n(CCC)c1=O [Compound 20b]" class=false

Determine whether measured pKi meets or exceeds 8 for CCCn1c(=O)c2nc(-c3ccc(OCC(=O)NCCN=C(S)Nc4ccc(OC)cc4)cc3)[nH]c2n(CCC)c1=O [Compound 7]
false

Determine whether measured pKi meets or exceeds 8 for CCCn1c(=O)c2[nH]c(-c3ccc(OCC(=O)NCCNS(=O)(=O)c4cccc(S(=O)(=O)Cl)c4)cc3)nc2n(CCC)c1=O [Compound 13]
true

Determine whether measured pKi meets or exceeds 8 for CCCn1c(=O)c2[nH]c(-c3ccc(OCC(=O)NCCNS(=O)(=O)c4ccc(C)cc4)cc3)nc2n(CCC)c1=O [Compound 14]
false

Determine whether measured pKi meets or exceeds 8 for CCCn1c(=O)c2[nH]c(-c3ccc(OCC(=O)NCCN)cc3)nc2n(CCC)c1=O [Compound 3, reference compound]
true

Determine whether measured pKi meets or exceeds 8 for CCCn1c(=O)c2[nH]c(-c3ccc(OCC(=O)NCCNC(=O)CBr)cc3)nc2n(CCC)c1=O [Compound 18]
false

====

Molecular target: A1 adenosine receptors (Rattus norvegicus, UniProt P25099)
Construct: A1 adenosine receptors in rat cerebral cortex membranes; from tissue; host or cells: rat cerebral cortex membranes
Assay: inhibition of binding of [3H]N6-phenylisopropyladenosine ([3H]PIA) to A1 adenosine receptors in rat cerebral cortex membranes
Conditions: Table II, rat, against [3H]PIA; read-out: Ki at central A1 receptors, rat
propertyLabel: pKi
Field pKi (float): negative decimal logarithm of the concentration in molar.

Looking for the measured pKi of `O=C(Cc1ccc(Nc2ncnc3c2ncn3[C@@H]2O[C@H](CO)[C@@H](O)[C@H]2O)cc1)ON1C(=O)CCC1=O` , can you help?
8.08

====

Biological target: central A1 receptors (Rattus norvegicus)
Construct: A1 -adenosine receptors in rat brain membranes; from tissue; host or cells: rat brain membranes
Assay type: binding
Conditions: read-out: % inhib (conc)
propertyLabel: inhibition at 0.5 µM (%)
# value in %; strip the unit string

Before answering, review these 4 worked examples.
molecule=CCCn1c(=O)c2[nH]c(-c3ccc(OCC(=O)NCCNC(=O)CCCCC(C)=O)cc3)nc2n(CCC)c1=O propertylabel="inhibition at 0.5 µM" recordedvalue=0
molecule="CCCn1c(=O)c2[nH]c(-c3ccc(OCC(=O)NCCNC(=O)CNC(=S)Nc4ccc(N=C=S)cc4)cc3)nc2n(CCC)c1=O [Compound 16c]" propertylabel="inhibition at 0.5 µM" recordedvalue=50
molecule=CCCn1c(=O)c2[nH]c(-c3ccc(OCC(=O)NCCNC(=O)CCCCCCC(=O)ON4C(=O)CCC4=O)cc3)nc2n(CCC)c1=O propertylabel="inhibition at 0.5 µM" recordedvalue=40
molecule=CCCn1c(=O)c2[nH]c(-c3ccc(OCC(=O)ON4C(=O)CCC4=O)cc3)nc2n(CCC)c1=O propertylabel="inhibition at 0.5 µM" recordedvalue=0

Looking for the measured inhibition at 0.5 µM of CCCn1c(=O)c2[nH]c(-c3ccc(OCC(=O)NCCNC(=O)CCC(=O)ON4C(=O)CCC4=O)cc3)nc2n(CCC)c1=O [Compound 20b] , can you help?
0
